# System: A549
# test-method-notes: Growth inhibition of human A549 cells by MTT assay
# Assay type: functional, cell-based
metric: IC50 (µM)
Give bare numbers, in µM.

Would you please look over these solved cases?
>  <chemical-smiles>
O=C1C=C(O)C(=O)c2ccccc21

>  <result-units>
µM

>  <IC50>
58

$$$$
>  <chemical-smiles>
COC1=C(CC=C(C)C)C(=O)c2ccccc2C1=O

>  <result-units>
µM

>  <IC50>
36

$$$$

We next turn to a different compound, shown below.
-- ask // query IC50 value for entry CC(C)=CCC1=C(Cl)C(=O)c2ccccc2C1=O
-- reply 34

----------
# System: A549
# test-method-notes: Growth inhibition of human A549 cells by MTT assay
# Format: functional, cell-based
Assign IC50 to each entry below.

Would you please look over these solved cases?
>  <chemical-smiles>
O=C1C(O)=C(/C=C/c2ccccc2)C(=O)c2ccccc21

>  <IC50>
> 100 µM

$$$$
>  <chemical-smiles>
CCCCCCCCCCCCCCCCCC(=O)OC1=C(CC=C(C)C)C(=O)c2ccccc2C1=O

>  <IC50>
> 100 µM

$$$$

-- ask // query IC50 value for entry CCCOC1=C(CC=C(C)C)C(=O)c2ccccc2C1=O
-- reply > 100 µM

Data origin, for the record: ChEMBL document CHEMBL3102839
